- system-tested: human NTCP (Homo sapiens, UniProt Q14973)
- method-description: Screening taurocholate uptake assay (96-well, [14C]taurocholate, 10 µM drug)
- condition-set: ranking over the functional and the binding screening assay
Counter-ions that a name gives are not always drawn.
Assign class by Ranking score: not lower than 200 means class 1; lower than 200 means class 0.

Clc1ccc(COC(Cn2ccnc2)c2ccc(Cl)cc2Cl)cc1 (stereo not drawn) [Econazole nitrate]
class 0
CN1CCC(OC(c2ccccc2)c2ccccc2)CC1 [Diphenylpyraline hydrochloride]
class 0
C[C@]12CC[C@H]3C(=CCc4cc(O)ccc43)[C@@H]1CCC2=O
class 1

Note: attention shifts to another entry.
stdin: Would you say C[C@H](CCC(=O)O)[C@H]1CC[C@H]2[C@@H]3[C@H](O)C[C@@H]4C[C@H](O)CC[C@]4(C)[C@H]3CC[C@]12C shows Ranking score at minimum 200?
stdout: class 0

---

Entries and their Ranking score
- system-tested: UniProtKB Q14973
- method-description: Screening taurocholate uptake assay (96-well, [14C]taurocholate, 10 µM drug)
Counter-ions that a name gives are not always drawn.
Please reply with the number alone, leaving off any unit.

stdin: Requested field: Ranking score. Item: COc1ccc2[nH]c([S+]([O-])Cc3ncc(C)c(OC)c3C)nc2n1 (stereo not drawn)
stdout: 199.975

stdin: Requested field: Ranking score. Item: CCC(=O)O[C@H]1CC[C@H]2[C@@H]3CCC4=CC(=O)CC[C@]4(C)[C@H]3CC[C@]12C [Testosterone propionate]
stdout: 567.732

stdin: Requested field: Ranking score. Item: N[C@@H]1C[C@H]1c1ccccc1 [Tranylcypromine hydrochloride]
stdout: 1041.86

---

- system-tested: human NTCP (Homo sapiens)
- Sequence (Q14973 1-349): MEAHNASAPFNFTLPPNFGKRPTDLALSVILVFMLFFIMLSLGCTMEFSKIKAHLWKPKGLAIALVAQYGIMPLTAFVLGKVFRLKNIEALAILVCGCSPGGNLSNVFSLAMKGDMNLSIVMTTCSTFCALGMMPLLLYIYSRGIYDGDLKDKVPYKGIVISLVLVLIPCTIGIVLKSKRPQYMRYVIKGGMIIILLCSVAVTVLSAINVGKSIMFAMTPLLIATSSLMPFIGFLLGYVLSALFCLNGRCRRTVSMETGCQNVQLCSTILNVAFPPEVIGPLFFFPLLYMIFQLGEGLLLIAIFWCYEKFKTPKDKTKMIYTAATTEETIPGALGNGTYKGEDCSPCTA
- method-description: Screening fluorescent competitive Myrcludex B-FITC binding assay (96-well, 10 µM drug)
- condition-set: screen, 10 µM drug, Myrcludex B-FITC binding
Counter-ions that a name gives are not always drawn.
value-kind: B-score binding assay
Please reply with the number alone, leaving off any unit.

Study these solved cases before continuing.
CN(C)CCN(Cc1ccc(Cl)cc1)c1ccccn1.Cl [Chloropyramine hydrochloride]
2.853
Cc1ccc(Cl)c(Nc2ccccc2C(=O)[O-])c1Cl.O.[Na+]
0.415
CC(=O)OCC(=O)NCCCOc1cccc(CN2CCCCC2)c1 [Roxatidine Acetate HCl]
0.239

stdin: Requested field: B-score binding assay. Item: Brc1c(NC2=NCCN2)ccc2nccnc12.O=C(O)C(O)C(O)C(=O)O [Brimondine L-Tartrate]
stdout: -0.57

stdin: Requested field: B-score binding assay. Item: COc1ccc(C(=O)c2ccccc2O)c(O)c1 [Dioxybenzone]
stdout: -0.95

stdin: Requested field: B-score binding assay. Item: CC[N+](C)(C)Cc1ccccc1Br [Bretylium tosylate]
stdout: 1.504

stdin: Requested field: B-score binding assay. Item: CCN1CC(CCN2CCOCC2)C(c2ccccc2)(c2ccccc2)C1=O.Cl (stereo not drawn) [Doxapram hydrochloride]
stdout: -1.194

stdin: Requested field: B-score binding assay. Item: CC(C)(C)NC[C@H](O)COc1ccccc1C1CCCC1 [Penbutolol sulfate]
stdout: -1.346

stdin: Requested field: B-score binding assay. Item: Nc1nc(=S)c2ncn([C@@H]3O[C@H](CO)[C@@H](O)[C@H]3O)c2[nH]1 [Thioguanosine]
stdout: -0.655

stdin: Requested field: B-score binding assay. Item: CN1Cc2c(N)cccc2C(c2ccccc2)C1 (stereo not drawn) [Nomifensine maleate]
stdout: -1.176

stdin: Requested field: B-score binding assay. Item: O=C(O)Cc1sc(-c2ccccc2)nc1-c1ccc(Cl)cc1 [Fentiazac]
stdout: 0.475

stdin: Requested field: B-score binding assay. Item: NC1CCN(c2c(F)cc3c(=O)c(C(=O)O)cn(C4CC4)c3c2Cl)C1 (stereo not drawn) [Clinafloxacin]
stdout: -1.253

stdin: Requested field: B-score binding assay. Item: O=C([O-])CCNC(=O)c1ccc(/N=N/c2ccc(O)c(C(=O)[O-])c2)cc1.[Na+].[Na+] [Balsalazide Sodium]
stdout: -0.506

---

- system-tested: human NTCP (Homo sapiens)
- Sequence (Q14973 1-349): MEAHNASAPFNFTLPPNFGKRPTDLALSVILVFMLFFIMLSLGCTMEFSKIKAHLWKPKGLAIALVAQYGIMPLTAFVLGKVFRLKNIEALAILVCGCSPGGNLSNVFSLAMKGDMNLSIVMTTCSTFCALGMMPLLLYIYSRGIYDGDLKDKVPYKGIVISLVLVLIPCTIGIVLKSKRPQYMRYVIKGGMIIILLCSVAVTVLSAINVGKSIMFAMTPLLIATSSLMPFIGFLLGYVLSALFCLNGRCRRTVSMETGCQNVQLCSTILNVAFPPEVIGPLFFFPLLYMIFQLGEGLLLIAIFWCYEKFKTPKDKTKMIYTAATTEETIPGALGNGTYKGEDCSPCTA
- method-description: Screening taurocholate uptake assay (96-well, [14C]taurocholate, 10 µM drug)
- condition-set: ranking over the functional and the binding screening assay
Structures can show the parent of a compound that is named as a salt.
Entries and their Ranking score
Please reply with the number alone, leaving off any unit.

Study these solved cases before continuing.
Cc1cc(O)c(C(=O)N[C@@H](C(=O)N[C@@H]2C(=O)N3C(C(=O)O)=C(CSc4nnnn4C)CS[C@H]23)c2ccc(O)cc2)cn1 [Cefpiramide]
261.897
CC(C)(C(=O)O)c1ccc(C(O)CCCN2CCC(C(O)(c3ccccc3)c3ccccc3)CC2)cc1 (centres unmarked) [Fexofenadine HCl]
234.288
CCCCN1CCCCC1C(=O)Nc1c(C)cccc1C (centres unmarked) [Bupivacaine hydrochloride]
231.991
Cc1c(NC(C)C)c(=O)n(-c2ccccc2)n1C.Cl [Isopyrin hydrochloride]
209.153

We next turn to a different molecule, shown below.
stdin: Requested field: Ranking score. Item: CC(=O)[C@@]12O[C@](C)(c3ccccc3)O[C@@H]1C[C@H]1[C@@H]3CCC4=CC(=O)CC[C@]4(C)[C@H]3CC[C@@]12C [Algestone acetophenide]
stdout: 142.566

---

- system-tested: human NTCP (Homo sapiens, UniProt Q14973)
- method-description: Screening taurocholate uptake assay (96-well, [14C]taurocholate, 10 µM drug)
- condition-set: combined ranking of functional and binding screening assays
Entries and their Ranking score
Please reply with the number alone, leaving off any unit.

Study these solved cases before continuing.
Cc1cccn2c(=O)c(-c3nnn[nH]3)cnc12
607.829
Cc1ccc(S(=O)(=O)NC(=O)NN2CCCCCC2)cc1 [Tolazamide]
601.655
C[n+]1ccccc1/C=N/O [Pralidoxime chloride]
600.675

We next turn to a different compound, shown below.
stdin: Requested field: Ranking score. Item: CC(=O)OCC(=O)[C@@]1(O)[C@H](C)C[C@H]2[C@@H]3CCC4=CC(=O)C=C[C@]4(C)[C@@]3(F)[C@@H](O)C[C@@]21C [Dexamethasone acetate]
stdout: 586.678

---

- system-tested: human NTCP (Homo sapiens, UniProt Q14973)
- method-description: Screening taurocholate uptake assay (96-well, [14C]taurocholate, 10 µM drug)
- condition-set: combined ranking of functional and binding screening assays
Counter-ions that a name gives are not always drawn.
value-kind: Ranking score
Please reply with the number alone, leaving off any unit.

Study these solved cases before continuing.
CC(C)[N+](C)(CCOC(=O)C1c2ccccc2Oc2ccccc21)C(C)C [Propantheline bromide]
472.136
C/C(=C(\CCOP(=O)(O)O)SC(=O)c1ccccc1)N(C=O)Cc1cnc(C)nc1N [Benfotiamine]
532.072
CCOC(=O)OC(C)OC1=C(C(=O)Nc2ccccn2)N(C)S(=O)(=O)c2ccccc21 (centres unmarked) [Ampiroxicam]
519.584
COCCOC(=O)C1=C(C)NC(C)=C(C(=O)OC/C=C/c2ccccc2)C1c1cccc([N+](=O)[O-])c1 (centres unmarked) [Cilnidipine]
582.255
CC(=O)c1ccc2c(c1)N(CCCN1CCC(CCO)CC1)c1ccccc1S2 [Piperacetazine]
531.5

stdin: Requested field: Ranking score. Item: Cl.OC(CCN1CCCCC1)(c1ccccc1)C1CCCCC1 (centres unmarked) [Trihexyphenidyl-D,L Hydrochloride]
stdout: 472.758

stdin: Requested field: Ranking score. Item: Cc1cccc(CN2CCN(C(c3ccccc3)c3ccc(Cl)cc3)CC2)c1.Cl.Cl (centres unmarked) [Meclozine dihydrochloride]
stdout: 482.469

stdin: Requested field: Ranking score. Item: CC(=O)O[C@H]1C[C@@]2(C)[C@@H](C[C@@H](O)[C@H]3[C@@]4(C)CC[C@@H](O)[C@@H](C)[C@@H]4CC[C@@]32C)/C1=C(\CCC=C(C)C)C(=O)O [Fusidic acid sodium salt]
stdout: 523.068
